System: field corn (Zea mays L., var. Dekalb 535, CORN)
Test: Pre-emerge test, crop safety
Assay type: in vivo
Conditions: pre-emerge, 250 g ai/ha, 14 days after application, rating scale 0-100
endpoint: phytotoxicity rating CORN

molecule="CCOC(=O)C(Cl)Cc1cc(Cl)cc(F)c1-n1nc(C)n(C(F)F)c1=O (centres unmarked) [14-52]" observed_value=0

Now consider a different molecule.
### Prompt Provide measured phytotoxicity rating CORN value, entry: CCOC(=O)C(Cl)Cc1c(OC)c(Cl)cc(F)c1-n1nc(C(F)(F)F)n(C)c1=O (centres unmarked) [14-61]
### Response 0

###

Tested on: field corn (Zea mays L., var. Dekalb 535, CORN)
Test: Post-emerge test, crop safety
Format: in vivo
Conditions: 250 g ai/ha; phytotoxicity rating 0-100 (0 no damage, 100 complete death), 14 days after application
endpoint: Post-emerge Herbicidal Activity CORN (crop damage)
The reply should be a number, written without any unit.

### Prompt Assign Post-emerge Herbicidal Activity CORN (crop damage) to the following record: Cn1c(C(F)(F)F)cc(=O)n(-c2c(F)cc(Cl)c(OCC#N)c2N)c1=O
### Response 0

### Prompt Given the molecule COc1c(Cl)cc(F)c(-n2c(=O)cc(C(F)(F)F)n(C)c2=O)c1N(C(=O)C1CC1)C(=O)C1CC1 , write its reported Post-emerge Herbicidal Activity CORN (crop damage).
### Response 0

### Prompt Please report Post-emerge Herbicidal Activity CORN (crop damage) for the following molecule: C=Cc1ccc(C(=O)Nc2c(OC)c(Cl)cc(F)c2-n2c(=O)cc(C(F)(F)F)n(C)c2=O)cc1
### Response 60

### Prompt Give Post-emerge Herbicidal Activity CORN (crop damage) for the following molecule: CCOC(=O)C(C)Nc1c(OC)c(Cl)cc(F)c1-n1c(=O)cc(C(F)(F)F)n(C)c1=O (stereo not shown)
### Response 10

### Prompt Let me know recorded Post-emerge Herbicidal Activity CORN (crop damage) for Cn1c(C(F)(F)F)cc(=O)n(-c2c(F)cc(Cl)c(OCc3ccccc3)c2N)c1=O , thanks.
### Response 15

### Prompt Determine its reported Post-emerge Herbicidal Activity CORN (crop damage): COc1c(Cl)cc(F)c(-n2c(=O)cc(C(F)(F)F)n(C)c2=O)c1N(C)C
### Response 0

### Prompt Return Post-emerge Herbicidal Activity CORN (crop damage) (reported value) for this molecule: CCc1ccc(C(=O)Nc2c(OCC#N)c(Cl)cc(F)c2-n2c(=O)cc(C(F)(F)F)n(C)c2=O)cc1
### Response 25

### Prompt Please give measured Post-emerge Herbicidal Activity CORN (crop damage) of the following entry: COc1c(Cl)cc(F)c(-n2c(=O)cc(C(F)(F)F)n(C)c2=O)c1NS(=O)(=O)c1ccc(C)cc1
### Response 0

### Prompt Answer with the recorded Post-emerge Herbicidal Activity CORN (crop damage) for the molecule listed here: COc1c(Cl)cc(F)c(-n2c(=O)cc(C(F)(F)F)n(C)c2=O)c1NC(=O)C1CCCCC1
### Response 0

### Prompt Quick one: give measured Post-emerge Herbicidal Activity CORN (crop damage) for COc1c(Cl)cc(F)c(-n2c(=O)cc(C(F)(F)F)n(C)c2=O)c1N=C(Cl)C(Cl)(Cl)Cl
### Response 10

### Prompt Please report Post-emerge Herbicidal Activity CORN (crop damage) for the following molecule: COc1c(Cl)cc(F)c(-n2c(=O)cc(C(F)(F)F)n(C)c2=O)c1NC(=O)c1ccc(C)cc1
### Response 95

### Prompt Return Post-emerge Herbicidal Activity CORN (crop damage) (reported value) for this molecule: COc1c(Cl)cc(F)c(-n2c(=O)cc(C(F)(F)F)n(C)c2=O)c1NC(=O)C(F)(F)F
### Response 0

### Prompt Give reported Post-emerge Herbicidal Activity CORN (crop damage) value for COc1c(Cl)cc(F)c(-n2c(=O)cc(C(F)(F)F)n(C)c2=O)c1NC(=O)c1cccc(C)c1
### Response 90

### Prompt State its Post-emerge Herbicidal Activity CORN (crop damage) for this molecule: C=CC(=O)N(C(=O)C=C)c1c(OC)c(Cl)cc(F)c1-n1c(=O)cc(C(F)(F)F)n(C)c1=O
### Response 0

###

The following molecules are listed with their measured Post-emerge phytotoxicity rating CORN (crop damage) values.
System: field corn (Zea mays L., var. Dekalb 535, CORN)
Assay: Post-emerge test, crop safety
Format: in vivo
Conditions: Rate 63 g ai/ha; rating scale 0-100 (0 no damage, 100 complete death); 14 days after application
Returns: the value as a bare number; no unit string appended.

molecule="C#CCOC(=O)C(Cl)Cc1c(OC)c(Cl)cc(F)c1-n1c(=O)cc(C(F)(F)F)n(C)c1=O (single isomer, unassigned) [14-19]" assay_system="field corn (Zea mays L., var. Dekalb 535, CORN)" observed_value=0
molecule="CCOC(=O)C(Br)Cc1c(OC)c(Cl)cc(F)c1-n1c(=O)cc(C(F)(F)F)n(C)c1=O (single isomer, unassigned) [14-32]" assay_system="field corn (Zea mays L., var. Dekalb 535, CORN)" observed_value=0
molecule="CCCCCCOC(=O)C(C)(Cl)Cc1c(OC)c(Cl)cc(F)c1-n1c(=O)cc(C(F)(F)F)n(C)c1=O (centres unmarked)" assay_system="field corn (Zea mays L., var. Dekalb 535, CORN)" observed_value=50
molecule="COc1c(Cl)cc(F)c(-n2c(=O)cc(C(F)(F)F)n(C)c2=O)c1CC(Cl)C(=O)OCCOc1ccccc1 (single isomer, unassigned) [14-28]" assay_system="field corn (Zea mays L., var. Dekalb 535, CORN)" observed_value=10
molecule="COc1c(Cl)cc(F)c(-n2c(=O)cc(C(F)(F)F)n(C)c2=O)c1CC(Cl)C(=O)OCCC(C)C (single isomer, unassigned)" assay_system="field corn (Zea mays L., var. Dekalb 535, CORN)" observed_value=0

### Prompt Identify Post-emerge phytotoxicity rating CORN (crop damage) associated with the molecule COc1c(Cl)cc(F)c(-n2c(=O)cc(C(F)(F)F)n(C)c2=O)c1CC(Cl)C(=O)OCC(F)(F)F (centres unmarked)
### Response 50

### Prompt For the molecule CCCCOC(=O)C(Cl)Cc1c(OC)c(Cl)cc(F)c1-n1c(=O)cc(C(F)(F)F)n(C)c1=O (single isomer, unassigned) [14-8] , report Post-emerge phytotoxicity rating CORN (crop damage).
### Response 40

### Prompt Consider the molecule CCCCCOC(=O)C(Cl)Cc1c(OC)c(Cl)cc(F)c1-n1c(=O)cc(C(F)(F)F)n(C)c1=O (single isomer, unassigned) [14-11] and give its recorded Post-emerge phytotoxicity rating CORN (crop damage).
### Response 100

### Prompt Supply reported Post-emerge phytotoxicity rating CORN (crop damage) belonging to this molecule: CCOC(=O)C(Cl)(C#N)Cc1c(OC)c(Cl)cc(F)c1-n1c(=O)cc(C(F)(F)F)n(C)c1=O (centres unmarked)
### Response 0

### Prompt Answer with the recorded Post-emerge phytotoxicity rating CORN (crop damage) of COc1c(Cl)cc(F)c(-n2c(=O)cc(C(F)(F)F)n(C)c2=O)c1CC(Cl)C(=O)OCC(F)(F)C(F)F (centres unmarked) only.
### Response 10

### Prompt Could you please provide reported Post-emerge phytotoxicity rating CORN (crop damage) for COc1c(Cl)cc(F)c(-n2c(=O)cc(C(F)(F)F)n(C)c2=O)c1CC(C)(Cl)C(=O)OC(C)C (centres unmarked) ? Thanks!
### Response 30

###

Pre-emerge crop damage RICE (phytotoxicity rating, scale 0-100) reference
Tested on: upland rice (Oryza sp., var. Tebonnet, RICE)
Assay: Pre-emerge test, crop safety
Format: in vivo
Conditions: 63 g ai/ha; pre-emerge; rated 14 days after application; 0 = no damage, 100 = complete death
# respond with the number and nothing more

molecule="COc1c(Cl)cc(F)c(-n2c(=O)cc(C(F)(F)F)n(C)c2=O)c1N=CN(C)C [Compound 1-31]" observed_value=0
molecule="COC(=O)C=CCOc1c(Cl)cc(F)c(-n2c(=O)cc(C(F)(F)F)n(C)c2=O)c1N [Compound 1-20]" observed_value=60
molecule="CCc1ccc(C(=O)Nc2c(OC)c(Cl)cc(F)c2-n2c(=O)cc(C(F)(F)F)n(C)c2=O)cc1 [2-27]" observed_value=70
molecule="COc1c(Cl)cc(F)c(-n2c(=O)cc(C(F)(F)F)n(C)c2=O)c1NC(=O)CC#N [2-14]" observed_value=0
molecule="COc1c(Cl)cc(F)c(-n2c(=O)cc(C(F)(F)F)n(C)c2=O)c1NC(=O)c1cccc(C)c1 [2-23]" observed_value=80

### Prompt Determine from records and report Pre-emerge crop damage RICE (phytotoxicity rating, scale 0-100) for Cn1c(C(F)(F)F)cc(=O)n(-c2c(F)cc(Cl)c(OCc3ccccc3)c2N)c1=O [Compound 1-22]
### Response 0

### Prompt # return recorded Pre-emerge crop damage RICE (phytotoxicity rating, scale 0-100) for entry CCOC(=O)C(C)Oc1c(Cl)cc(F)c(-n2c(=O)cc(C(F)(F)F)n(C)c2=O)c1N (stereo not shown) [Compound 1-60]
### Response 40

### Prompt Report measured Pre-emerge crop damage RICE (phytotoxicity rating, scale 0-100); entry is COc1c(Cl)cc(F)c(-n2c(=O)cc(C(F)(F)F)n(N)c2=O)c1N [Compound 1-13]
### Response 95

### Prompt Please supply the value of reported Pre-emerge crop damage RICE (phytotoxicity rating, scale 0-100) for the item Cn1c(C(F)(F)F)cc(=O)n(-c2c(N)cc(OC(F)F)cc2F)c1=O [Compound 1-51]
### Response 10
